- assay text: soluble fraction after stress (log2 fold change); higher = more stays soluble; pooled small domains, quantitative proteomics;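 also: 20 min heating vs room temperature control held 20 min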
- setup conditions: stress: 75 degC
Returns one of met or not met; met when soluble fraction (log2) is >= -0.6.

- HMTETEIVIGGKYRHYKGGEYELVSIVKHSETLEELVIYKSLSTGEMWARPKSLFVGLVDGQPRYTL: not met
- HMFDFGNHLRMLREKHGISQEELGRRVGRAGSVISNYENNIKIPTLDVLTTMARIYDVSLDYLVG: not met
- HMIPKDKQAWIALTYIYGVGRTTSMEILKKAQVGEEIRMKDLTEEEVTRIRNIIDKEYEVEGDLRRN: met
- HMVSSVAAISQMIDEKDRYTSEHSHRVAEYARLIGAHMGFAGEELDSLYRSALLHDIGKIAVPDAILNK: not met
- HMNKEHINLDSSKFLSLLNKTKISMSNDETRHYLNGIYIHPTVSNKSSYLTGVATDSHRLSSSSIPVD: met
- HMPVAPTYALTVKTDPPSANVRLLNSPTPYQPGVRLPSGNYDIEVTQSGYATRKESVRIADRDVALNIAL: met
- HMAIKNKNEQLEAIIKFADLRGEFKTADIEELLSIKSSRARLLISELVKIGKLESIGSNRNRRYHIK: not met
- HMRNSVQREWIYDYIQRQDAHLSADEIYEGLLKEGKNISLATVYRNLSILVDEYKIASVMTDSKKQVYDK: not met

###

Parameter soluble fraction (log2): see the listing below.
- assay text: soluble fraction after stress (log2 fold change); higher = more stays soluble; pooled small domains, quantitative proteomics
- setup conditions: stress: 75 degC
parameter: soluble fraction (log2)

- HMEAKTSNPDYHARLGLTEGEGNDSALGVSVKAAEGGFGLLFGNKVGSDQLVRFANEDQVWLVNRALS: 0.165
- HMGVDASVDSKLDLLSQVLDSDQVKEQLPEAVLEQLAQNLDRWRSLHEESELQDDDIAELNRLLGLFGLG: 0.111
- HMPRVLSSYTLTLRHQPTAEAVALVRTLLSPAGSVEVKEDGRTLVVRDELAALSRIVGALRSFDH: -0.851
- HMENDGQFLRAEREKYGLTLTDIYEHTHIPIKKLKAYEMWEEEMPPRTRALLELYFDQVAFEYDS: -0.862

###

- assay text: soluble fraction after stress (log2 fold change); higher = more stays soluble; pooled small domains, quantitative proteomics
- setup conditions: stress: 75 degC
Returns one of 1 (yes) or 0 (no); 1 (yes) when soluble fraction (log2) is >= -0.1.

* HMEYTVNRLAQISGVSKRTLRYYDEIGLLRPERVNPNGYRIYGQMQVDLLQQILFYRELGLPLEEIREII | 0 (no)
* HMSTALTPLTTREREVLALMAEGLTNSGIAARLVLTDRTVETHVSRILHKLGLGETTTNEHRRVLAVLRYL | 0 (no)
* HMRPSGEAVNAAYRLLKGANPSGNEGDLIQRAQEVAAILPKLNRSSAAAFAKDAKANGLTQAETIALWKGS | 1 (yes)
* HMLIRKGVVSFFNDAKGYGFIKDLVTQESAFVHVNSLSETIKEHDKVTFEVEMGHKGANAVNVKLVK | 0 (no)
* HMPAAFALLTDREREIAALIAQRLTNREIAEKLYLSEGSVKQYVNQLYAKLGIEGDTRTKRRRLAEQAK | 0 (no)
* HMRHLSVPSQDTQQVLQRLKVELALPEGARVRSDPSDPGRRLIPFTESVPQEMIDQYPVVSINI | 0 (no)
* HMESDAIAAAIAALPARYREVLLLRYDNGFSYSEISKALDMTEAAVRKTVQRAKEALQRTLQIQEEDT | 0 (no)
* HMTNTYEVIKNDIIFGVLPPLKKLKLLELKKKYITSVSTLREILSRLSGDGFVVSKEQKGFYVSAV | 1 (yes)

###

- assay text: soluble fraction after stress (log2 fold change); higher = more stays soluble; pooled small domains, quantitative proteomics
- setup conditions: stress: 75 degC
parameter: soluble fraction (log2)

• HMITSELALVKLVVKGANRVEALRVAETFRARALDVTLSSFVFELTGKPSKLDAFIGLMRSLGDTEILKR = -4.17
• HMNGKWKLRIIKELLHSNIRFGQILKNIPDISPKVLSQQLKEMEEDGIIERIVISEMPPNVEYVLTDMGE = -1.66
• HMSTKRQKELLEYVDRFITEHGYGPSYREIMNAIGYKSVSTVAIHIDGLIAKGYLRKRDNSARSLEVV = -1.17
• HMPRKYFPFYFTFRETAQTMPPRLRAVFYEAIIEYGTTGKEPTLPKSIAGYWPLVKPTLDSAKAHYDAG = -3.62
• HMKEEVMVPNVVGKELSAALLEMQVKELYPKLQLKYSNFVDDKGTVLEQSPPAGSIVKAGRRINLVVSRGA = 0.106
• HMPATTMMVVVDRDLPYGHVLTDRDVRLETRRATSPGASVAFTSIDPVLGQSLTRPLGAGTPVGRADLR = -0.218
• HMGTGSSAERITMLNSILERQIQAMEIQGNPDAPIVNIQKIYTTLQRIVETAGLKDVDQFFMNPLQGQKEM = -0.134
• HMGQARQSAIRELGNDPTSGKKITVRSGRYGPYVTDGEVNASLRKGDDPQTIDLDRAIELLAARREKLG = -0.148

###

Parameter soluble fraction (log2): see the listing below.
- assay text: soluble fraction after stress (log2 fold change); higher = more stays soluble; pooled small domains, quantitative proteomics
- setup conditions: stress: 75 degC
parameter: soluble fraction (log2)

- HMDRRSTTLQDIYTRIDAEEISEALELIPKLGEIEFEQNRAEIAEAAGVRPAVLDKLRKQAAKQENNKK: -0.00584
- HMSLTAQVFTDRGKVLLSENKFTEAIDQFTKALAMDKVYIEALNRRIEAYQHLGLTELAAKDEALLGTL: -1.16
- HMIDKIRYPELIMKLAHQQGGTIKRRDVEQLLHLQTKQAYRELSKLVDAGELVSVGRGPGAHYEVS: -0.316
- HMVDFHAAYSILRIAPGASWQEIQAAYEKLNDAWREDRYPQVPFWNEKAAFKRREVEQAYEKLRKFHALRH: -2.43

###

Parameter soluble fraction (log2): see the listing below.
- assay text: soluble fraction after stress (log2 fold change); higher = more stays soluble; pooled small domains, quantitative proteomics
- setup conditions: stress: 75 degC
parameter: soluble fraction (log2)

* HMVNSIQIHKKLRLDKRAGSDNWYARLTLPNGKRLVKTTKTEDIETAKEVALRLYYEVDARIQNKLPAT | -1.72
* HMDDLFGNAIEMFNNQRYDMTYELLVQLLSETPNNEKAWQLLADTKFMLGDYDDALHIVGKAAK | -1.05
* HMGNAQELQKKLEGLKGISGIEKLESDHYAEKYLVRITQPVDHKNPAAGTFTQRVIVAHVGFDRPTILVT | 0.51
* HMGAYPENSLLKERGQSAVYLIQENRKRLFFNAEAFLINGYNWKDIQVVDDLSKILTGKVIYAK | -2.83
* HMNYGDVIEGQIMHVDRDELLVDIGSKSEGIIPAREFSTLTDEERAALSVGDHVLVFVVQAENQEGQAV | 0.297
* HMNLAISAYQQLKSDIIRGVYAPGEKLLMSRLKVRYGLGIGPMREALSQLVSEHLVTAASQRGYRVAGM | -1.79
* HMDPNAITSAQVTKLQVLANEKGFAERQARLTMWAEVIGRNVGTANELTKAEAHKLIEHMDALPV | -0.691
* HMDKVEQLMQNPVIQEKMSEGDRELLRNASLVVLGRLEDDGSIIQRFVELFGEEAYERLKSELM | -0.0149
* HMGNRWENLISNKMIDDVDEELLRKYIAQAHDAGRIAISYTDRKTVLNQLELTDGDRLLNAGKVLFSD | -0.392
* HMTNATVGQIKKLARASILYGNSNLSGNRYTYKANTTVTILQNISSNVDKIRVNVTGRVAYIDNSNYSSST | -3.59
* HMEQNTKAYEQVRTLTDLLNQYRHEYYNLSAPSVSDQEYDRLFDALAALEKQTGIVMSNSPTQTVG | 0.0212
* HMGSRAEAKEFLQTMLADGRQLATDMEEARQAHDIADRTLRRARKELNVQVYRDGNAWYWELPTPIK | -0.585
* HMDSIDVQQKKLLTDIELGNIEGIKLFLKRHNNTINFLTIKGFHPLVYAVRNNNMEIVNLFLTT | 0.149
* HMDFSSRLKDERKRLKLSQAQLGEAGGVSKDAQLNYENGSRSPSASYLELIAREGVDVQFLLTGKRS | 0.155
* HMENKVLVITEEEKGKRLDVYLAAALEVSRSYAQQLIQGEDVVVNDKQVKANYRLSEGDVVQVQLD | 1.01
* HMDRETEEYELIRAKLEWLYQKQTGTIRNQTAKILHHLEIAKEEGNYYLYLKIKEEAKQWLVQASMYLD | -0.638
* HMIVNEQEQTFIKAMRDDDFNTILELKMKGYQPSDNVLKSLQPDISSTTFIAAAKIFQMERMLK | -0.502
